Reference source: ChEMBL document CHEMBL5291721

Notes on AC50 obtained with D(3) dopamine receptor (Homo sapiens, UniProt P35462).
Sequence (P35462 whole entry): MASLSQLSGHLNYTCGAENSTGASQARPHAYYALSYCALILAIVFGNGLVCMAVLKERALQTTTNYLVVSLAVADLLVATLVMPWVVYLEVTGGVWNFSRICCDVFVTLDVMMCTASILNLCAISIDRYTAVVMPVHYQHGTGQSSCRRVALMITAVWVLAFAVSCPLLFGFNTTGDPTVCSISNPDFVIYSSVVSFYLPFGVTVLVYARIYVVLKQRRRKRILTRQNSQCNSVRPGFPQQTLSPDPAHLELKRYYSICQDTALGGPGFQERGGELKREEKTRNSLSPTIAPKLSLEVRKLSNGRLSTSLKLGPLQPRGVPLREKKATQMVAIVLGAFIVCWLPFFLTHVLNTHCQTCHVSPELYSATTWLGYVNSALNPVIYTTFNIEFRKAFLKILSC
measurement kind: AC50

1. CC(=O)OC(C)OC(=O)C(C)c1ccc(-c2ccccc2)c(F)c1 (stereo not given)
> 30 µM
2. CN(C)C(=O)Oc1cccc([N+](C)(C)C)c1
> 30 µM
3. C[C@@H]1C[C@H]2[C@@H]3CCC4=CC(=O)C=C[C@]4(C)C3=CC[C@]2(C)[C@H]1C(=O)CN1CCN(c2cc(N3CCCC3)nc(N3CCCC3)n2)CC1
9.69 µM
4. CN1CCC[C@H]1c1cccnc1
> 30 µM
5. c1ccc2[nH]c(-c3cscn3)nc2c1
> 30 µM

----------
Target: UniProt P03372
Sequence (P03372 whole entry): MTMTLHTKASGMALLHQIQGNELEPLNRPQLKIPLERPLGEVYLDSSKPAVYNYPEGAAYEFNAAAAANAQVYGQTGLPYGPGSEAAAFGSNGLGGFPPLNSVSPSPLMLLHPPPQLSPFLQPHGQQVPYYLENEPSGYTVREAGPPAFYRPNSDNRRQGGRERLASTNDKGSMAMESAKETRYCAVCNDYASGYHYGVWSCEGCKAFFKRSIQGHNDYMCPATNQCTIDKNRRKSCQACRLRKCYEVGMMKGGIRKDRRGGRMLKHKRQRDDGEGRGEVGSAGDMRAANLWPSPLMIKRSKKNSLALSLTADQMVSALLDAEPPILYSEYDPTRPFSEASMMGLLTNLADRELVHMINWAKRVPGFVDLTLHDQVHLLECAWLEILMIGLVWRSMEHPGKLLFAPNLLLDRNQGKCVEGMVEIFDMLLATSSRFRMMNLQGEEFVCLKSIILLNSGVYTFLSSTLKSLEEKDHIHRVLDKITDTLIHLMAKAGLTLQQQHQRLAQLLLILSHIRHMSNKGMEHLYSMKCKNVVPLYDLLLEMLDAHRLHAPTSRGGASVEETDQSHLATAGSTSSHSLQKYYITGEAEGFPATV
measurement kind: AC50

1) CNC(=O)Oc1ccc2c(c1)[C@]1(C)CCN(C)[C@@H]1N2C
> 30 µM
2) CC(C)N(CCCCOCC(=O)NS(C)(=O)=O)c1cnc(-c2ccccc2)c(-c2ccccc2)n1
> 30 µM
3) CCn1cc(C(=O)O)c(=O)c2cc(F)c(N3CCN(C)CC3)cc21
> 30 µM
4) CCC(=O)OCC(=O)[C@@]1(OC(=O)CC)[C@@H](C)C[C@H]2[C@@H]3CCC4=CC(=O)C=C[C@]4(C)[C@@]3(F)[C@@H](O)C[C@@]21C [BETAMETHASONE DIPROPIONATE]
> 10 µM

----------
AC50 values, listed per item
Target: Voltage-gated inwardly rectifying potassium channel KCNH2 (Homo sapiens, UniProt Q12809); also: assay procedure not described here
Sequence (Q12809 whole entry): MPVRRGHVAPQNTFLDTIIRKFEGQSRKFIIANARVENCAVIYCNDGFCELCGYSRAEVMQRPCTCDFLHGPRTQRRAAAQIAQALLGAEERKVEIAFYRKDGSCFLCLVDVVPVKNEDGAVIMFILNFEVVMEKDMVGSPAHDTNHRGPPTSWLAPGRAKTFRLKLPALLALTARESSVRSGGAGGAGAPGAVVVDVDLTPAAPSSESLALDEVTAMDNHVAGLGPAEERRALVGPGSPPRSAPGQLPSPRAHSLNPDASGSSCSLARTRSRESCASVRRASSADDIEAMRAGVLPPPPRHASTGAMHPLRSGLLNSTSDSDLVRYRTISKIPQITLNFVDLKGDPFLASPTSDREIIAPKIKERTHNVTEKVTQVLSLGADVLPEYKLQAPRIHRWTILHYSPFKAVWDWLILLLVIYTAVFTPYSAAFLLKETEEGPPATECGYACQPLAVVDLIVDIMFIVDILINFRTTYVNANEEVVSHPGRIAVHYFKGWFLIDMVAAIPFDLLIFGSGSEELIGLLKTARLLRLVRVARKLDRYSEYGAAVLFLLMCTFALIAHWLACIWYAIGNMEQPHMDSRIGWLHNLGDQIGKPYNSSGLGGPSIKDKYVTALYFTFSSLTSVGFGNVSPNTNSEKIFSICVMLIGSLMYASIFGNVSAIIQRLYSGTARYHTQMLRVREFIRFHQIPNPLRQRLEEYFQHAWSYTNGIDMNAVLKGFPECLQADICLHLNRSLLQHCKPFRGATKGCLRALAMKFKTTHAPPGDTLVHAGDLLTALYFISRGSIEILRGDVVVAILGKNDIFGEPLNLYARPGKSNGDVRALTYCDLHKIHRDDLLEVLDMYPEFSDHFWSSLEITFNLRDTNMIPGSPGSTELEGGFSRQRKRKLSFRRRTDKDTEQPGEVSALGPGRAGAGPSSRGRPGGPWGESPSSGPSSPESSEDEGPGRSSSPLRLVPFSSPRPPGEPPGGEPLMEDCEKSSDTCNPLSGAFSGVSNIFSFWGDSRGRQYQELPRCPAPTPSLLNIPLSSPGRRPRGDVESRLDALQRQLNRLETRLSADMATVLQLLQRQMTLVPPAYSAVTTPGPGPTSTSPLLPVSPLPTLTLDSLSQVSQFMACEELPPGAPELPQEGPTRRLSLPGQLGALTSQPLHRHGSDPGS
Format: functional
Details: read-out: AC50; also: assay procedure not described here
measurement kind: AC50

1) CCCC(=O)O[C@H]1[C@H](C)O[C@@H](O[C@H]2[C@H](N(C)C)[C@@H](O)[C@H](O[C@H]3[C@@H](CC=O)C[C@@H](C)[C@@H](O)/C=C/C=C/C[C@@H](C)OC(=O)C[C@@H](O)[C@@H]3OC)O[C@@H]2C)C[C@@]1(C)OC(=O)CC
> 30 µM
2) CO[C@H]1/C=C/O[C@@]2(C)Oc3c(C)c(O)c4c(O)c(cc(O)c4c3C2=O)NC(=O)/C(C)=C\C=C\[C@H](C)[C@H](O)[C@@H](C)[C@@H](O)[C@@H](C)[C@H](OC(C)=O)[C@@H]1C
> 30 µM
3) CCN(CC)CCOC(=O)C(Cc1cccc2ccccc12)CC1CCCO1 (stereo not given)
6.9 µM
4) CC[C@@H](CO)NC(=O)[C@@H]1C=C2c3cccc4[nH]cc(c34)C[C@H]2N(C)C1
> 30 µM
5) CN(C)c1cc(CNCC(C)(C)C)c(O)c2c1C[C@H]1C[C@H]3[C@H](N(C)C)C(O)=C(C(N)=O)C(=O)[C@@]3(O)C(O)=C1C2=O
> 30 µM

----------
Notes on AC50 obtained with UniProt P35372.
Sequence (P35372 whole entry): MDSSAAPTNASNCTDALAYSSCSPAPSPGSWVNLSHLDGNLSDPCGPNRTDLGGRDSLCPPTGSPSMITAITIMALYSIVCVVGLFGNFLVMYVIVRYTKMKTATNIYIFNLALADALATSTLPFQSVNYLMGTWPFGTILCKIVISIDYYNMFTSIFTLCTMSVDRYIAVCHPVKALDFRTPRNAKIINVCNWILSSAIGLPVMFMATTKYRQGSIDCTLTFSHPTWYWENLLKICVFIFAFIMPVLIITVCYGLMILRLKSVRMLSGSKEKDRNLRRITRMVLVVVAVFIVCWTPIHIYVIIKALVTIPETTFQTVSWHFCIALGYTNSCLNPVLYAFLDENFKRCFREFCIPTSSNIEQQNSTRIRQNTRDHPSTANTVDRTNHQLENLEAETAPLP
measurement kind: AC50

1) CCOC(=O)[C@H](CCc1ccccc1)N[C@@H](C)C(=O)N1Cc2cc(OC)c(OC)cc2C[C@H]1C(=O)O [MOEXIPRIL]
> 30 µM
2) CCCCNc1ccc(C(=O)OCCN(C)C)cc1 [TETRACAINE]
> 30 µM
3) CCC(=O)O[C@@H]1CC(=O)O[C@H](C)C/C=C/C=C/[C@H](OC(C)=O)[C@H](C)C[C@H](CC=O)[C@H](O[C@@H]2O[C@H](C)[C@@H](O[C@H]3C[C@@](C)(OC(C)=O)[C@@H](OC(=O)CC)[C@H](C)O3)[C@H](N(C)C)[C@H]2O)[C@H]1OC [MIOCAMYCIN]
> 30 µM
4) CCn1cc(C(=O)O)c(=O)c2cc(F)c(N3CCNCC3)nc21 [ENOXACIN]
> 30 µM
5) CCCCCCCCCCC[C@@H](C[C@@H]1OC(=O)[C@H]1CCCCCC)OC(=O)[C@H](CC(C)C)NC=O [ORLISTAT]
> 30 µM
6) CO/N=C(\C(=O)N[C@@H]1C(=O)N2C(C(=O)[O-])=C(C[n+]3cccc4c3CCC4)CS[C@H]12)c1csc(N)n1 [CEFPIROME]
> 30 µM
7) Cc1onc(-c2c(Cl)cccc2Cl)c1C(=O)N[C@@H]1C(=O)N2[C@@H]1SC(C)(C)[C@@H]2C(=O)O [DICLOXACILLIN]
> 30 µM
8) CCSc1ccc2c(c1)N(CCCN1CCN(C)CC1)c1ccccc1S2 [THIETHYLPERAZINE]
2.69 µM
9) COc1cc([C@@H]2c3cc4c(cc3[C@@H](O[C@@H]3O[C@@H]5CO[C@@H](c6cccs6)O[C@H]5[C@H](O)[C@H]3O)[C@H]3COC(=O)[C@H]23)OCO4)cc(OC)c1O [TENIPOSIDE]
> 30 µM
10) CN(C)CCN(Cc1ccc(Cl)cc1)c1ccccn1 [CHLOROPYRAMINE]
5.22 µM
11) O=C(Oc1ccccc1C(=O)O)c1ccccc1O [SALSALATE]
> 30 µM
12) CC(c1ccc(Cl)c(Cl)c1)N1N=C(N)CC1=O (stereo unspecified) [MUZOLIMINE]
> 30 µM
13) Oc1c(I)cc(Cl)c2cccnc12 [CLIOQUINOL]
> 30 µM
14) Cc1cc2c(OCC(O)CNC(C)C)cccc2[nH]1 (stereo unspecified) [MEPINDOLOL]
21 µM
15) N[C@@H](CC(=O)O)C(=O)O [ASPARTIC ACID]
> 30 µM
16) CNC[C@H](O)c1cccc(O)c1 [PHENYLEPHRINE]
> 30 µM
17) CCCCOc1ccc(CC(=O)NO)cc1 [BUFEXAMAC]
> 30 µM
18) C[C@]12CC[C@@H]3c4ccc(O)cc4CC[C@H]3[C@@H]1CC[C@@H]2OC(=O)CCC1CCCC1 [ESTRADIOL CYPIONATE]
> 30 µM
19) CC(C)(N)C(=O)N[C@H](Cc1c[nH]c2ccccc12)C(=O)N[C@H](Cc1c[nH]c2ccccc12)NC=O [MACIMORELIN]
0.75 µM
20) O=C(O)c1cc(=O)c2ccccc2o1 [CHROMOCARB]
> 30 µM
21) Nc1nc(N)nc(Nc2ccc([As]3SCC(CO)S3)cc2)n1 (stereo unspecified) [MELARSOPROL]
> 30 µM
22) NC(=O)NS(=O)(=O)c1ccc(N)cc1 [SULFACARBAMIDE]
> 30 µM
23) OC(CCCN1CCCCC1)(c1ccccc1)c1ccccc1 [DIPHENIDOL]
25.2 µM
24) C#C[C@]1(O)CC[C@H]2[C@@H]3CCC4=C(CCC(=O)C4)[C@H]3CC[C@@]21C [NORETHYNODREL]
> 30 µM
25) COCCOc1cnc(NS(=O)(=O)c2ccccc2)nc1 [GLYMIDINE]
> 30 µM
26) C[C@]12CCC(=O)C=C1CC[C@@H]1[C@@H]2[C@@H](O)C[C@@]2(C)[C@H]1CC[C@]2(O)C(=O)COC(=O)CCC(=O)O [HYDROCORTISONE HEMISUCCINATE ANHYDROUS]
> 30 µM
27) CC(C1=C(CCN(C)C)Cc2ccccc21)c1ccccn1 (stereo unspecified)
7.04 µM
28) O=C(O)CC(O)(CC(=O)O)C(=O)O [CITRIC ACID]
> 30 µM
29) CO[C@@]1(NC(=O)CSCC#N)C(=O)N2C(C(=O)O)=C(CSc3nnnn3C)CS[C@@H]21 [CEFMETAZOLE]
> 30 µM
30) CC(=O)O[C@H]1C[C@H](O[C@H]2[C@@H](O)C[C@H](O[C@H]3[C@@H](O)C[C@H](O[C@H]4CC[C@@]5(C)[C@H](CC[C@@H]6[C@@H]5C[C@@H](O)[C@]5(C)[C@@H](C7=CC(=O)OC7)CC[C@]65O)C4)O[C@@H]3C)O[C@@H]2C)O[C@H](C)[C@H]1O[C@@H]1O[C@H](CO)[C@@H](O)[C@H](O)[C@H]1O [LANATOSIDE C]
> 30 µM
31) O=C1[C@H]2CCCC[C@H]2C(=O)N1CCCCN1CCN(c2nsc3ccccc23)CC1 [PEROSPIRONE]
9.84 µM
